Assay: aqueous solubility (LC/MS- or HPLC-based assay)
Format: physicochemical
Conditions: aqueous solution (buffer not named), aqueous buffer, Example 2, at any given pH; read-out: solubility
From the text: Furthermore, to profile the properties of the piperazinyl-4(1H)-quinolones, and to identify potential limitations, aqueous solubility and lipophilicity log D were experimentally determined via LC/MS-based assays as described by the Manetsch laboratory previously^8,10,31,32 (Tables 9-12). […]
reported.endpoint: solubility

>  <compound>
CCCCc1cc2c(=O)c(C(=O)NCCO)c[nH]c2cc1OCCOc1ccccc1 [Compound 13d]

>  <assay.value>
> 20 µM

$$$$

###

tested on: P. berghei-GFP parasites; assay: modified Thompson test; assay type: in vivo, P. berghei; mice; details: 10 mg/kg oral on days 3, 4 and 5 PI; survival to day 30 PI with parasitemia <1%
No. of Cures by entry:

>  <molecule>
Cc1[nH]c2cc(CN3CCN(c4ccc(F)cc4)CC3)ccc2c(=O)c1Cl [Compound 8ao]

>  <No. of Cures>
0/5

$$$$
>  <molecule>
Cc1[nH]c2cc(CN3CCN(c4ccc(F)cc4)CC3)ccc2c(=O)c1Br [Compound 8an]

>  <No. of Cures>
0/5

$$$$
>  <molecule>
O=c1c(Br)c[nH]c2cc(CN3CCN(c4ccc(F)cc4)CC3)ccc12 [Compound 8ak]

>  <No. of Cures>
0/5

$$$$
>  <molecule>
O=C1C(O)=C([C@H]2CC[C@H](c3ccc(Cl)cc3)CC2)C(=O)c2ccccc21 [Atovaquone, atovaquone, reference compound]

>  <No. of Cures>
5/5

$$$$
